Test Description: qHTS for Suppressors of FUS Proteinopathy: Primary screen using FUS-linked yeast assay; also: nearly all actives have a fitted effect of over 55% in size
Experimental Parameters: S. cerevisiae FUS-expressing, OD600, 24 h; growth rescue; series mostly up to 76.6 µM
Screen size: about 390,000 compounds; about 930 (0.24%) were called active. Another 5% or so got no clear call; they are omitted. Calls follow the shape of the dose curve; as a rule, active = well fitted activation curve with a large enough effect; inconclusive = small, poorly fitted or top-dose-only effect; inactive = no such curve, though single readings can be large or run the other way. This is one part of a sample in which actives are shown more often than they occur.
Outcome codes: active, inactive

In [3]: df
Out[3]:
                                   molecule  assigned_category
0  CC(C)S(=O)(=O)c1oc(-c2ccc(F)cc2)nc1S(=O)(=O)c1ccc(F)cc1           inactive
1    COCCCNc1ccn2nc(-c3ccc(CC(C)C)cc3)cc2n1             active
2  Cc1ccc(CN2C(=O)SC(Nc3ccccc3)C2=O)cc1 (centres undefined)           inactive
3  CCOc1ccccc1N(CC)C(=O)Nc1cn(C)c(=O)c2ccccc12           inactive
4  CCc1cc2c(cc3c(=O)n(CC(=O)NCCc4ccc(OC)c(OC)c4)ncn32)s1           inactive
5    COc1ccc(N2CCN(c3cc(C)nc4nncn34)CC2)cc1           inactive
6  CC(C)(C)c1ccc(C(=O)Nc2ccc3c(c2)CCCN3C(=O)c2cccs2)cc1           inactive
7  CCCn1c2ccccc2c2cnn(CC(=O)NCC3CCN(Cc4ccc(C)cc4)CC3)c(=O)c21           inactive
8  Cc1cccc(CCNC(=O)c2ccc3c(c2)nc2n3CCC(C)C2)c1 (centres undefined)           inactive

* * *

Test Description: qHTS for Suppressors of FUS Proteinopathy: Primary screen using FUS-linked yeast assay; also: nearly all actives have a fitted effect of over 55% in size; also: potency is read from the fitted curve at half-maximal effect
Experimental Parameters: S. cerevisiae FUS-expressing, OD600, 24 h; growth rescue; series mostly up to 76.6 µM
Text: Several widespread neurodegenerative diseases, including Alzheimer disease, Huntington disease, Frontotemporal Lobar Degeneration (FTLD) and Amyotrophic Lateral Sclerosis (ALS), share a common pathological feature, namely accumulation of specific protein aggregates in diseased tissue. These diseases which is associated with protein misfolding (proteinopathies) have become increasingly problematic as the population ages and life expectancies are extended. […]
Out of some 390,000 compounds screened, about 930 (0.24%) were called active. Not shown: some 5% with an inconclusive outcome. What follows is part of a selection rich in actives, with near analogues and random picks from the rest.

Compound	Potency
Cc1oc2ccc(O)c(CN3CCC(C)CC3)c2c1C(=O)Nc1ccccc1	inactive
Cc1ccc(Cl)cc1NC(=O)CCC(=O)N1CC(C)Sc2ccccc21 (centres undefined)	inactive
CC(C)CCn1c(CN(C)Cc2ccccc2)nc2c1c(=O)n(C)c(=O)n2C	inactive
CN(C(=O)c1ccc2c(c1)N(Cc1cccc(Cl)c1)C(=O)c1ccccc1S2=O)C1CCCCC1 (centres undefined)	inactive
CC(C)Cn1c(CN(Cc2ccccc2)Cc2ccccc2)nc2c1c(=O)n(C)c(=O)n2C	31.6 µM (active)
COC(=O)[C@]12C[C@H](CC(=O)N3CCOCC3)C(=O)N(Cc3ccc(Cl)cc3Cl)C1=C[C@H](COCc1ccccc1)O[C@@H]2C	inactive
COC(=O)Cc1csc(/N=C/c2c(O)n(-c3cccc(C(F)(F)F)c3)c(=O)c3ccccc23)n1	inactive
CCc1ccccc1NC(=O)CSc1nnc(-c2ccccc2)c(-c2ccccc2)n1	inactive
COc1cccc(OCCn2c(-c3ccc(Br)cc3)nc3ccccc3c2=O)c1	inactive
O=C(COc1ccccc1Cl)Nc1ccc2nc(SCC(=O)N3CCCC3)sc2c1	inactive
COc1ccc(Cc2nc3ccc(C(=O)NCc4ccccc4C)cc3o2)cc1	inactive
CCOC(=O)N1CCN(C(=O)C[C@H]2C[C@@]3(C(=O)OC)C(=C[C@H](C(C)(C)C)O[C@@H]3C)N(Cc3ccc(Cl)cc3Cl)C2=O)CC1	6.31 µM (active)
COC(=O)[C@]12C[C@H](CC(=O)NCC34CC5CC(CC(C5)C3)C4)C(=O)N(Cc3ccc(Cl)cc3Cl)C1=C[C@H](COCc1ccccc1)O[C@@H]2C	inactive
C#CCOCCOCCOCCNc1nc(N2CCN(C(=O)C([C@@H](C)CC)n3cc(C(N)COC(=O)C(F)(F)F)nn3)CC2)nc(N2CCN(C(=O)[C@H](CCCCN)n3cc(C(N)CC(C)C)nn3)CC2)n1 (some centres undefined)	inactive
Cc1ccc(-c2cn3c(n2)sc2cc(C(=O)NCCCc4ccccc4)ccc23)cc1	inactive
CCCCOc1ccc(C(=O)N2CC(=O)Nc3ccc(Br)cc3C2c2ccc(F)cc2)cc1 (centres undefined)	inactive
C#CCOCCOCCOCCNc1nc(N2CCN(C(=O)[C@H](CCC(=O)O)n3cc(C(N)CO)nn3)CC2)nc(N2CCN(C(=O)[C@H](Cc3ccc(O)cc3)n3cc(C(N)[C@H](C)CC)nn3)CC2)n1 (some centres undefined)	inactive
Cc1cc(NC(=O)C2CCC(CNS(=O)(=O)c3ccc(Br)s3)CC2)ccc1Br (centres undefined)	inactive
COC(=O)[C@]12C[C@H](CC(=O)NCc3cccc4ccccc34)C(=O)N(CCc3ccc(OC)c(OC)c3)C1=C[C@H](C1CCCC1)O[C@@H]2C	12.6 µM (active)
CCOc1ccc(N=Cc2c(O)n(-c3cccc(C)n3)c(=O)c3ccccc23)cc1	8.91 µM (active)
COC(=O)[C@@]12CCCCC=C1N(CCc1ccc(Cl)cc1)C(=O)[C@H]2CC(=O)NCc1ccc(OC)c(OC)c1	inactive
Cc1ccc(Cc2cnc(N)s2)o1	11.2 µM (active)
CCN(CC(=O)Nc1ccc(Cl)c(S(=O)(=O)N(C)C)c1)Cc1nc2ccccc2c(=O)[nH]1	31.6 µM (active)
O=C(CN1CCOCC1)Nc1c(Cl)cc(Cl)cc1Cl	inactive

* * *

Test Description: qHTS for Suppressors of FUS Proteinopathy: Primary screen using FUS-linked yeast assay; also: nearly all actives have a fitted effect of over 55% in size
Experimental Parameters: S. cerevisiae FUS-expressing, OD600, 24 h; growth rescue; series mostly up to 76.6 µM
Screen size: about 390,000 compounds; about 930 (0.24%) were called active. Roughly 5% stayed inconclusive and do not appear here. Calls follow the shape of the dose curve; as a rule, active = well fitted activation curve with a large enough effect; inconclusive = small, poorly fitted or top-dose-only effect; inactive = no such curve, though single readings can be large or run the other way. The entries come from a sample that favours actives as a whole.
Outcome codes: active, inactive

In [3]: df
Out[3]:
                                    compound  assigned_category
 0  CC(=O)N1CCCc2cc(S(=O)(=O)N3CCC(C(=O)NCc4ccc(F)cc4)CC3)ccc21           inactive
 1  CCOc1ccc(Nc2c(S(=O)(=O)c3ccccc3)cnc3ccccc23)cc1           inactive
 2  Cn1c(=O)c(=O)n(C)c2cc(NC(=O)c3ccccc3Br)ccc21           inactive
 3  Cc1ccc2[nH]c(=O)c(CN(CC3COCCO3)C(=O)Nc3ccccc3C)cc2c1 (configuration not stated)           inactive
 4  Cc1oc2ccc(O)c(CN3CCCCC3)c2c1C(=O)Nc1cccc(C(F)(F)F)c1           inactive
 5  COC(=O)c1ccc(NC(=O)CCc2c(C)nn(-c3ccc(N4CCCC4)nn3)c2C)cc1           inactive
 6  CCN1C(=O)[C@H]2[C@@H](c3ccc(SC4CCCCC4)c(OC)c3)N[C@@](Cc3ccccc3)(C(=O)OC)[C@H]2C1=O           inactive
 7  N#C/C(=C\c1cccc(F)c1)c1nc(-c2cc3c(ccc4ccccc43)oc2=O)cs1           inactive
 8  Cc1ccc(N2C(=O)C3N=NN(CC(=O)N4N=C(c5cccc6ccccc56)CC4c4ccccc4)C3C2=O)cc1 (configuration not stated)             active
 9  Cc1ccc(CNC(=O)CSC2=Nc3ccccc3C3=NC(C)C(=O)N23)cc1 (configuration not stated)           inactive
10  Cc1ccc2[nH]c(=O)c(CN(CCCN(C)C)C(=O)Nc3cccc(Cl)c3)cc2c1           inactive
11  Cc1ccc(-c2csc(C(C#N)=C(O)CN3CCN(C(=O)c4ccco4)CC3)n2)cc1             active
12  Cc1ccc(Nc2ccc3cc(S(=O)(=O)N4CCCCC4)ccc3n2)cc1F           inactive
13  CN(Cc1ccccc1)C(=O)CCS(=O)(=O)c1cc(Br)cc2c1N(C(=O)C1CC1)CC2           inactive
14  COc1ccc2c(c1)Cc1sc(NC(=O)c3ccccc3Br)nc1-2             active
15  CCc1ccccc1NC(=O)N1CCN(C(=O)c2nsc3ccccc23)CC1           inactive
16  COc1ccc(C2=NS(=O)(=O)N(C)C(C(=O)NC(C)c3ccccc3)=C2)cc1 (configuration not stated)           inactive
17  CCN1C(=O)[C@H]2[C@@H](c3ccc(-c4ccc(F)cc4)cc3)N[C@@](Cc3ccccc3)(C(=O)OC)[C@H]2C1=O             active
18  CCN(CC)C(=O)CSc1nc2ccsc2c(=O)n1Cc1ccccc1Cl           inactive
19  O=C(Nc1cc(C(F)(F)F)ccc1Cl)c1cc2nc(-c3ccc4c(c3)OCO4)cc(C(F)(F)F)n2n1           inactive
20  Cc1c(NC(=O)Cc2ccccc2)cccc1-c1nc2cccnc2s1           inactive
21  O=C(Nc1c(C(=O)N2CCN(c3ccc(F)cc3)CC2)oc2ccccc12)c1ccco1           inactive
